The reported numbers originate from PubChem BioAssay (NCI).

System: OVCAR-4 ovarian
procedure-details: NCI tumour cell line growth inhibition, 48 h; in the data active means GI50 below about 0.43 µM; inactive means the rest
Please state which outcome applies, choosing from YES for active, NO for inactive

Worked examples follow.
1) O=C(Nc1cccc(Cl)c1)Nc1cc(C(F)(F)F)ccc1Cl | NO
2) Fc1ccc(Nc2ccnc(N3CCN(c4ccnc5cc(Cl)ccc45)CC3)n2)cc1 | NO
3) O=C(Nc1n[nH]c2cc(-c3ccc(F)cc3)ccc12)C1CC1 | NO
4) O=C1NC(=O)/C(=C/c2ccc3nccc(-c4ccncc4)c3c2)S1 | NO
5) COC1C[C@H](O[C@@H]2C[C@H](O[C@@H]3C[C@H](O[C@@H]4C(=O)c5c(cc6cc(O[C@H]7C[C@@H](O[C@H]8C[C@@H](O)[C@H](O)C(C)O8)[C@H](O)C(C)O7)c(C)c(O)c6c5O)C[C@H]4C(OC)C(=O)[C@@H](O)[C@@H](C)O)OC(C)[C@H]3O)OC(C)[C@@H]2O)OC(C)[C@@H]1O (some centres undefined) | YES

Query: Hi, sorry to bother you, what did the test record for N/C(=N/O)NOCCC(N)C(=O)O (centres undefined) ?
Response: NO

Query: Hi, sorry to bother you, what did the test record for Nc1nc(N)c2c(n1)NC(c1ccc(Cl)cc1)C1CCc3ccccc3C1=N2 (centres undefined) ?
Response: NO

Query: Hi, sorry to bother you, what did the test record for `Nc1ncnc2c1ncn2Cc1ccc(CCl)cc1` ?
Response: NO

Query: Hi, sorry to bother you, what did the test record for `O=C(O)[C@@H](Cc1ccccc1)NS(=O)(=O)c1ccc(-c2ccccc2)cc1` ?
Response: NO
